Please provide measured activity change, negative = inhibition for the entries that follow.
experiment summary: NFAT Signaling Pathway (AID 444);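 further: carbachol stimulus at about its EC50 of 1 µM final; on the % scale 0 is the no-effect control and ±100 the full control effect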
assay context: Jurkat NFAT-bla M1, carbachol, beta-lactamase ratio, 5 h; at 38 µM (top of the series)
Records with an inconclusive call do not appear.
Numbers only, in %.

In the examples that follow, each entry is paired with its recorded activity change, negative = inhibition.
>>> df
                                   molecule  numeric_readout
0  CCCN(CCC)C(=O)Cc1c(-c2ccc(Cl)cc2)nc2c(Cl)cc(Cl)cn12             7.25
1  CCc1c(C(=O)OC)ncc2[nH]c3cc(OC)c(OC)cc3c12            -26.6
2                             NCC#Cc1ccccc1             3.19
3  C[N+]1(C)[C@@H]2CC[C@H]1CC(OC(=O)[C@@H](CO)c1ccccc1)C2 (stereo partly specified)            -61.2
4            N#C/C(=C\c1ccc(O)c(O)c1)C(N)=S            -11.5
5  C[C@]12CC[C@H](O)C[C@@H]1CC[C@H]1[C@H]2CC[C@]2(C)C(=O)CC[C@@H]12             8.64
6                C#CCN(C)[C@@H](C)Cc1ccccc1            -2.85
7         CC[C@@]1(c2ccc(N)cc2)CCC(=O)NC1=O             6.21
8        C[C@H](NC(C)(C)C)C(=O)c1cccc(Cl)c1            -9.57
9  CS(=N)(=O)CC[C@@H](N)C(=O)O (stereo partly specified)              4.5

Ask: # input molecule: CCC[C@@](C)(COC(N)=O)COC(=O)NC(C)C ; wanted: its activity change, negative = inhibition
Result: -2.28
